- Tested target: T1, A beta oligomer (synthetic A beta1-40, HCl form, 0.1 mg/ml in PBS, incubated at 37 degrees C for one hour) (UniProt P05067 672-711)
- T1 construct: domain: A beta1-40; non-fibrous multimer of the peptide; also called A beta 1-40 oligomer
- Assay text: SPR (Biacore 3000)
- Description: The analysis was carried out by Surface Plasmon Resonance (SPR) using Biacore 3000 (GE Healthcare Sciences).
Response field label: string, one of true (Kd strictly below 0.05 µM) or false.

• IR-081 antibody (antibody, mouse IgG2b, V domains shown, mouse IgG2b) VH: DVQLVESGGGLVQPGGSRKLSCAASGFTFSSFGMHWVRQAPEKGLEWVAYISSGSSTIYYADTVKGRFTISRDNPKNTLFLQMTSLRSEDTAMYYCARRWGEGAMDYWGQGTSVTVSS VL: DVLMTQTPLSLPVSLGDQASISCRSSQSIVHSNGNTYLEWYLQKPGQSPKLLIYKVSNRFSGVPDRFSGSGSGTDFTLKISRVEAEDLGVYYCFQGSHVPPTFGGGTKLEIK = false
• IR-118 antibody (antibody, mouse IgG2a, V domains shown, mouse IgG2a) VH: QVQLKESGPGLVAPSQSLSITCTISGFSLTSYGVHWVRQPPGKGLEWLVVIWSDGSTTYNSALKSRLSISKDNSKSQLFLKMNSLQTDDTAMYYCARHSYRYGLMDYWGQGTSVTVSS VL: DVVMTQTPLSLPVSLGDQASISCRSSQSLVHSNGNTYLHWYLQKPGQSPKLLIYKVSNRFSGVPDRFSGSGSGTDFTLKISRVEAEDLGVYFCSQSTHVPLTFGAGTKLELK = true
• IR-060 antibody (antibody, mouse IgG2a, V domains shown, mouse IgG2a) VH: DVQLVESGGGLVQPGGSRKLSCAASGFTFSSFGMHWVRQAPEKGLEWVAYISSGSSTIYYADTVKGRFTISRDNPKNTLFLQMTSLRSEDTAMYYCARGGNYLRYYAMDYWGQGTSVTVSS VL: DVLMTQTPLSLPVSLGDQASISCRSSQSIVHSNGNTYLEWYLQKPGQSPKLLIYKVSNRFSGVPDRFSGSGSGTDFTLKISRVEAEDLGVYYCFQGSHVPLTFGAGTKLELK = false
• IR-146 antibody (antibody, mouse IgG2a, V domains shown, mouse IgG2a) VH: DVQLVESGGGLVQPGGSRKLSCAASGFTFSSFGMHWVRQAPEKGLEWVAYISSGSSTIYYADTVKGRFTISRDNPKNTLFLQMTSLRSEDTAMYYCARGGTGAMDYWGQGTSVTVSS VL: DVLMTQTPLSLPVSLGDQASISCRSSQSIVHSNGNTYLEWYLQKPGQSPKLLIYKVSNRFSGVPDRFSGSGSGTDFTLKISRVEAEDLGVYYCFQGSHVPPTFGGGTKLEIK = false
